target: human thrombin (Homo sapiens, UniProt P00734); construct: human thrombin (a product of SIGMA Co.); purchased SIGMA Co; assay: Determination of thrombin-inhibiting activity; assay type: biochemical; conditions: Table 1; negative logarithm of concentration inhibiting 50% of initial rate; substrate S-2238, Tris-HCl pH 8.4
The following compounds are shown together with reported Thrombin-inhibiting activity (pIC50) values.
Reply: number alone, nothing else.

Quick one: Thrombin-inhibiting activity (pIC50) for "N=C(N)c1ccc(C(=O)Nc2cccc(COc3cccc(C(=N)N)c3)c2)cc1.O=C(O)C(F)(F)F.O=C(O)C(F)(F)F" ?
4.5

# next compound below
Quick one: Thrombin-inhibiting activity (pIC50) for "CCOP(=O)(O)c1ccc(S(=O)(=O)N[C@H](COc2cccc(C(=N)N)c2)Cc2ccc(OC3CCN(C(C)=N)CC3)cc2)cc1.O=C(O)C(F)(F)F.O=C(O)C(F)(F)F" ?
3.9
